# key: entry, value: Ki
Target: Muscarinic acetylcholine receptor M5 (Homo sapiens, UniProt P08912)
Sequence (P08912 whole entry): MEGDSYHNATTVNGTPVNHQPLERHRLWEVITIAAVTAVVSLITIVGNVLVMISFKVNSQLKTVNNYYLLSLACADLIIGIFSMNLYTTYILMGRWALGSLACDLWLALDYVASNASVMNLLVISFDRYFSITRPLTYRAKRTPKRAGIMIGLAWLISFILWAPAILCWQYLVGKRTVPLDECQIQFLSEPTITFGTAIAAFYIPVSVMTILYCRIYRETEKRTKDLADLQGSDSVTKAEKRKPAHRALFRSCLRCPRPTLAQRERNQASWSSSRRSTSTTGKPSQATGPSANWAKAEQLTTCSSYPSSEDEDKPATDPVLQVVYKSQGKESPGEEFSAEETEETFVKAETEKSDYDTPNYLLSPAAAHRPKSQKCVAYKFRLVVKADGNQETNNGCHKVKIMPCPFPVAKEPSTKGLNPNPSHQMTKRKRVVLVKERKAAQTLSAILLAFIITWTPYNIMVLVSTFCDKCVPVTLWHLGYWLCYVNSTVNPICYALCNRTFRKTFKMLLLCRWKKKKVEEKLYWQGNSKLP
Give the quantity in µM, number only.

The cases that follow already have their Ki on record.
Compound: C[N+]1(C)CCCC1c1ccc(C(c2ccccc2)C2CCCCC2)o1 (mixture of isomers)
Unit Symbol: µM
Ki: 0.0155
//
Compound: C[N+]1(C)CCC[C@@H]1c1ccc([C@](O)(c2ccccc2)C2CCCCC2)o1.[I-]
Unit Symbol: µM
Ki: 0.00155
//
Compound: CN1CCCC1c1ccc(C(c2ccccc2)c2ccccc2)o1 (configuration not stated)
Unit Symbol: µM
Ki: 0.105
//
Compound: CN1CCCC1c1ccc(C(O)(c2ccccc2)C2CCCCC2)o1 (mixture of isomers)
Unit Symbol: µM
Ki: 0.00708
//
Compound: CN1CCC[C@@H]1c1ccc([C@@](O)(c2ccccc2)C2CCCCC2)o1
Unit Symbol: µM
Ki: 0.468

Value of Ki reported for the compound C[N+]1(C)CCCC1c1ccc(C(O)(c2ccccc2)c2ccccc2)o1 (racemic) is 0.0372

// `CN1CCC[C@H]1c1ccc([C@](O)(c2ccccc2)C2CCCCC2)o1` : Ki value = 0.0275

* * *

Molecular target: Muscarinic acetylcholine receptor M4 (Homo sapiens, UniProt P08173)
Sequence (P08173 whole entry): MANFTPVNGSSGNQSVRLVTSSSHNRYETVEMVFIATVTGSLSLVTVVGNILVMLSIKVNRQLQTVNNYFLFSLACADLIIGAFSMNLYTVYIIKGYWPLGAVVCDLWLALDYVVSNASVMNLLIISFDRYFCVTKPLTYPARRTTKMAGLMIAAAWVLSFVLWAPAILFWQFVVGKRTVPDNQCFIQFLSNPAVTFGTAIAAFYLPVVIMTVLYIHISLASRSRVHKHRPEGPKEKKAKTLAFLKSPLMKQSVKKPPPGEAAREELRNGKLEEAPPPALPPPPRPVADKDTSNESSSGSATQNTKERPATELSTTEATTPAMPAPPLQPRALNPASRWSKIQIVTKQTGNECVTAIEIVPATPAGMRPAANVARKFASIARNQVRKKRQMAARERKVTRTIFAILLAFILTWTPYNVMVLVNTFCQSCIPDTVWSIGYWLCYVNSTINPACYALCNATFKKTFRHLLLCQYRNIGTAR
Measurement Type: pKi
Just the number, please; pKi means minus log10 of the concentration in mol/L.

Compound: C[N+]1(C)CCC[C@H]1c1ccc([C@](O)(c2ccccc2)C2CCCCC2)o1
Measurement Type: pKi
Reported Measurement: 7.48
//
Compound: CN1CCCC1c1ccc(C(c2ccccc2)C2CCCCC2)o1 (mixture of isomers)
Measurement Type: pKi
Reported Measurement: 7.11
//
Compound: C[N+]1(C)CCCC1c1ccc(C(O)(c2ccccc2)C2CCCCC2)o1 (mixture of isomers)
Measurement Type: pKi
Reported Measurement: 7.81

Record summary for CN1CCCC1c1ccc(C(O)(c2ccccc2)C2CCCCC2)o1 (mixture of isomers) : reported pKi = 7.85

Quick note, pKi for `C[N+]1(C)CCC[C@@H]1c1ccc([C@@](O)(c2ccccc2)C2CCCCC2)o1` landed at 6.43

For record C[N+]1(C)CCCC1c1ccc(C(c2ccccc2)C2CCCCC2)o1 (mixture of isomers) the listed pKi is 7.71

* * *

Form: system (UniProt:P20309), quantity (pKi), values below.
Sequence (P20309 whole entry): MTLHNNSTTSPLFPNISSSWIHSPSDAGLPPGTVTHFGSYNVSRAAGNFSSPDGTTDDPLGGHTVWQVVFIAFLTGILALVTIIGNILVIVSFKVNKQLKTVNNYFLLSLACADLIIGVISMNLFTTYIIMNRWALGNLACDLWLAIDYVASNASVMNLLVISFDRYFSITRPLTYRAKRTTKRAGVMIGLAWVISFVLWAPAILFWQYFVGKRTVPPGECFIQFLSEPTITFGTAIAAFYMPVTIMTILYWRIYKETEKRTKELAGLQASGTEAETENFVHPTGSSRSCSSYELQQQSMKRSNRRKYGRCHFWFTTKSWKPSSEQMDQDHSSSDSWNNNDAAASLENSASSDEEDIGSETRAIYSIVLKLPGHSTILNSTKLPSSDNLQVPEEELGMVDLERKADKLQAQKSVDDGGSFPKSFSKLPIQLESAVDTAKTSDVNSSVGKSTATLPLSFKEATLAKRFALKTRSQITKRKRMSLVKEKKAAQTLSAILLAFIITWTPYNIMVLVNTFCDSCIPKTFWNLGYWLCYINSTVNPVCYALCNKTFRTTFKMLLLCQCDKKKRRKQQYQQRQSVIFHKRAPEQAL
The value called pKi is obtained by taking minus log10 of the concentration in mol/L.

Compound: CN1CCCC1c1ccc(C(O)(c2ccccc2)c2ccccc2)o1 (racemic)
pKi: 7.02

Compound: CN1CCCC1c1ccc(C(c2ccccc2)c2ccccc2)o1 (stereo unspecified)
pKi: 7.07

Compound: C[N+]1(C)CCC[C@@H]1c1ccc([C@@](O)(c2ccccc2)C2CCCCC2)o1
pKi: 6.81

Compound: C[N+]1(C)CCCC1c1ccc(C(c2ccccc2)C2CCCCC2)o1 (mixture of isomers)
pKi: 8.05

Compound: C[N+]1(C)CCC[C@H]1c1ccc([C@](O)(c2ccccc2)C2CCCCC2)o1
pKi: 8.03

Now look at this one.
Here CN1CCCC1c1ccc(C(c2ccccc2)C2CCCCC2)o1 (mixture of isomers) was tested on UniProt:P20309, and its pKi came to 7.47

* * *

Target sequence: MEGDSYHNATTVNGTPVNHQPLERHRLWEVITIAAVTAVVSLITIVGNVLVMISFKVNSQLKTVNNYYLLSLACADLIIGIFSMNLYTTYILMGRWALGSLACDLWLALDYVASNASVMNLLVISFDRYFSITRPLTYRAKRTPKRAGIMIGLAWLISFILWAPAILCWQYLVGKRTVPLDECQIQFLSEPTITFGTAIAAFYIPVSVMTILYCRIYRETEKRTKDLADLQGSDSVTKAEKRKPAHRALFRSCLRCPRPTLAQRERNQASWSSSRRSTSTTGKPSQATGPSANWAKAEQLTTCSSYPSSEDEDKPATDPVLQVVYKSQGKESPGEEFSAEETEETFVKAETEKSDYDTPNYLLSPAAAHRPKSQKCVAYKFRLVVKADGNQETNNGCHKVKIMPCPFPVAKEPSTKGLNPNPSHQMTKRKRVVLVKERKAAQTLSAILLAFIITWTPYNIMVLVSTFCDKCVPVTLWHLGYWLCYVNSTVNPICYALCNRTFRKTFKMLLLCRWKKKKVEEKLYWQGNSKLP
Ki less than 60 nM is true; Ki greater than or equal to 60 nM is false.

Worked cases, answers included:
Compound: C[N+]1(C)CCC[C@@H]1c1ccc([C@@](O)(c2ccccc2)C2CCCCC2)o1
Assigned Label: false
--
Compound: C[N+]1(C)CCC[C@H]1c1ccc([C@](O)(c2ccccc2)C2CCCCC2)o1
Assigned Label: true
--
Compound: C[N+]1(C)CCC[C@H]1c1ccc([C@@](O)(c2ccccc2)C2CCCCC2)o1
Assigned Label: false
--
Compound: CN1CCC[C@H]1c1ccc([C@@](O)(c2ccccc2)C2CCCCC2)o1
Assigned Label: false

QUERY: # TODO verify Ki < 60 nM strictly for this compound: C[N+]1(C)CCCC1c1ccc(C(c2ccccc2)c2ccccc2)o1 (racemic)
RESULT: true

QUERY: Is 60 nM strictly greater than the compound's reported Ki? compound: CN1CCCC1c1ccc(C(O)(c2ccccc2)c2ccccc2)o1 (racemic)
RESULT: false

QUERY: Determine whether this compound shows Ki lower than 60 nM (ties excluded): `CN1CCC[C@@H]1c1ccc([C@](O)(c2ccccc2)C2CCCCC2)o1`
RESULT: true

QUERY: Ki strictly < 60 nM for this compound? C[N+]1(C)CCCC1c1ccc(C(O)(c2ccccc2)C2CCCCC2)o1 (mixture of isomers)
RESULT: true

QUERY: Hello, I'm reviewing records and need to know if Ki of CN1CCCC1c1ccc(C(c2ccccc2)C2CCCCC2)o1 (mixture of isomers) is below 60 nM. Could you check?
RESULT: true

* * *

Recorded pKi values (Muscarinic acetylcholine receptor M4 (Homo sapiens, UniProt P08173)) are given below.
// pKi: -log10(molar conc.)

C[N+]1(C)CCCC1c1ccc(C(c2ccccc2)c2ccccc2)o1 (racemic) has a reported pKi of 7.42

The reported pKi of the molecule C[N+]1(C)CCCC1c1ccc(C(O)(c2ccccc2)c2ccccc2)o1 (racemic) was 7.19

# pKi (molecule: `CN1CCC[C@@H]1c1ccc([C@@](O)(c2ccccc2)C2CCCCC2)o1` ) is 6.26

Lab book: pKi of `CN1CCC[C@H]1c1ccc([C@@](O)(c2ccccc2)C2CCCCC2)o1` noted as 5.51

`C[N+]1(C)CCC[C@H]1c1ccc([C@@](O)(c2ccccc2)C2CCCCC2)o1` has a reported pKi of 5.63

Form: molecule = `CN1CCC[C@H]1c1ccc([C@](O)(c2ccccc2)C2CCCCC2)o1` ; pKi = 7.26

# pKi of `CN1CCC[C@@H]1c1ccc([C@](O)(c2ccccc2)C2CCCCC2)o1` = 8.40
